# credit: the RNAGym collection of RNA variant scans (doi:10.1093/nar/gkz1192)

B1: CPEB3 Ribozyme (parent)
chain: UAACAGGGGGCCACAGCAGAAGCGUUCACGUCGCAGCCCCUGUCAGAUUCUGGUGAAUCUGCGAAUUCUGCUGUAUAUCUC

# Variants of: B1
# assaySummary: self-cleavage, relative activity (ratio to wild type); higher = more cleavage; in vitro, sequencing
condition met means recorded self-cleavage is 0.3 or above; condition not met means it is below 0.3.

{"mutation": "A15C U72A", "class": "condition met"}
{"mutation": "G24C U72G", "class": "condition not met"}
{"mutation": "G8U A77U", "class": "condition not met"}
{"mutation": "U69C G73U", "class": "condition met"}
{"mutation": "U60C G73C", "class": "condition met"}
{"mutation": "A35U A64G", "class": "condition met"}
{"mutation": "C29A A65G", "class": "condition not met"}
{"mutation": "C62U U74A", "class": "condition met"}
{"mutation": "A13G U48C", "class": "condition met"}
{"mutation": "C38U U41G", "class": "condition met"}
{"mutation": "A47G A77U", "class": "condition met"}
{"mutation": "G7A G16C", "class": "condition not met"}
{"mutation": "C4U U26C", "class": "condition met"}
{"mutation": "G10A U72A", "class": "condition not met"}
{"mutation": "C40G A77G", "class": "condition not met"}
{"mutation": "U1A U69A", "class": "condition met"}
{"mutation": "C29U U78C", "class": "condition met"}
{"mutation": "A13U C62U", "class": "condition not met"}
{"mutation": "C62U U74G", "class": "condition not met"}
{"mutation": "A13G A47C", "class": "condition met"}
{"mutation": "A3G G52A", "class": "condition met"}
{"mutation": "A35U U41G", "class": "condition met"}
{"mutation": "A13U U31G", "class": "condition met"}
{"mutation": "U1A G6A", "class": "condition not met"}
{"mutation": "U1C U41A", "class": "condition not met"}
{"mutation": "A21U G63A", "class": "condition met"}
{"mutation": "G42A U72A", "class": "condition not met"}
{"mutation": "U41G U78A", "class": "condition not met"}
{"mutation": "G10C U26C", "class": "condition not met"}
{"mutation": "G9A G61A", "class": "condition not met"}
{"mutation": "A3U G46A", "class": "condition met"}
{"mutation": "U1C C40A", "class": "condition not met"}
{"mutation": "A3C G61C", "class": "condition met"}
{"mutation": "C62U A64U", "class": "condition not met"}
{"mutation": "C32G U49C", "class": "condition not met"}
